So I've got a bunch of binders here, and I need their MFI values.
biological target: T1, human GPRC5D (human, UniProt Q9NZD1 1-345); assay: FACS, human GPRC5D cells
T1 construct: on transfected HEK293/RBL cells or endogenous on myeloma cells (H929, MM1R, OPM2, LP1, JIM3, patient plasma cells); also called G protein-coupled receptor class C group 5 member D; hGPRC5D
T1 sequence (Q9NZD1 whole entry): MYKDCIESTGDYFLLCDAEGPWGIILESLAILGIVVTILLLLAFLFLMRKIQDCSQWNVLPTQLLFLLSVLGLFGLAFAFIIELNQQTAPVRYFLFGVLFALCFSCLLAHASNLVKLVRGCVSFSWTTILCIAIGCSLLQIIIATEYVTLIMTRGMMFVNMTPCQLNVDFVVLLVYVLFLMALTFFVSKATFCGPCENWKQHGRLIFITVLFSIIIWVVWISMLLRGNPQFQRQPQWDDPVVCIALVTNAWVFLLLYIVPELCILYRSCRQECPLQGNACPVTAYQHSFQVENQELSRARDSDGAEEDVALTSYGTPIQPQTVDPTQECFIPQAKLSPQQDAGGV

BINDER: GC5B486 (antibody, V domains shown, GC5B164 PTM variant; also called GC5H263) VH: EVQLVQSGAEVKKPGESLKISCKGSGYSFTSYYIGWVRQMPGKGLEWMGIIYPGESDTRYSPSFQGQVTISADKSISTAYLQWSSLKASDTAMYYCARVYSFGGRHKALFDYWGQGTLVTVSS VL: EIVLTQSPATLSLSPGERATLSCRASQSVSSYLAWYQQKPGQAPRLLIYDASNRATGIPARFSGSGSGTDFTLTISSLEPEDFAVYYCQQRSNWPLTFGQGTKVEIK
MFI: > 10000 mfi

// next item, MFI requested
[Q] I have this binder here, GC5B493 (antibody, V domains shown, GC5B164 PTM variant; also called GC5H256) VH: EVQLVQSGAEVKKPGESLKISCKGSGYSFTSYFIGWVRQMPGKGLEWMGIIYPGYSDTRYSPSFQGQVTISADKSISTAYLQWSSLKASDTAMYYCARVYSFGGRHKALFDYWGQGTLVTVSS VL: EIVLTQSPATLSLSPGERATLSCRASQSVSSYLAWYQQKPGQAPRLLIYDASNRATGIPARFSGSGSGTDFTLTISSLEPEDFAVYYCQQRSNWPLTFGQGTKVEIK , and I need its recorded MFI.
[A] > 10000 mfi
